src = paper PMC4264199

target: dipeptidyl-peptidase IV (DPP-IV) (Homo sapiens, UniProt P27487); construct: purchased Creative BioMart (Shirley, NY, USA); host or cells: HEK293 human cells; experiment: Probing of membrane-bound peptide arrays: binding of DPP-IV to deca-peptides (immunoassay, chemiluminescence); conditions: peptide array on cellulose membrane, DPP-IV 10 μg/mL
Sequence (P27487 whole entry): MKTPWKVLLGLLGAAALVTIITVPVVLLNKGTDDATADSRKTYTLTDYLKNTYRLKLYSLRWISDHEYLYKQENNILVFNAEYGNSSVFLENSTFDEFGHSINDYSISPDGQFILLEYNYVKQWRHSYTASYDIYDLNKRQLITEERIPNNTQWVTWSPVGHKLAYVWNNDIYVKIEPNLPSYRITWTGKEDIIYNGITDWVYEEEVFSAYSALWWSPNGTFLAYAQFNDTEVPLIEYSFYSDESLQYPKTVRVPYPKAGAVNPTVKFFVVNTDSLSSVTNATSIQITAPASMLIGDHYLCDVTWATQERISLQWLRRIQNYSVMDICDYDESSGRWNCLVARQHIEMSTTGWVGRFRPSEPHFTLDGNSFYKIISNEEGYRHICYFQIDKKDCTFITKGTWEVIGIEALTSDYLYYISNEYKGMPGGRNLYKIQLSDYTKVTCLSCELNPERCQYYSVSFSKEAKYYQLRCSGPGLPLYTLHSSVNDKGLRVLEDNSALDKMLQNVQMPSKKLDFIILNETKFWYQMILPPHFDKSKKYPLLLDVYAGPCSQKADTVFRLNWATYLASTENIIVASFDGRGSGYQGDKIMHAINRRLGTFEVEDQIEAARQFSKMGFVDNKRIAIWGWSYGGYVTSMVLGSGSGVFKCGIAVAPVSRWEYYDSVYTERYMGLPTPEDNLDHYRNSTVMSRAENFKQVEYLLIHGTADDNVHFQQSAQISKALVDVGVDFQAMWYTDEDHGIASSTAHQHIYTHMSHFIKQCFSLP
Measured metric: Binding of DPP-IV to cellulose-bound deca-peptide (in words)

In [3]: df
Out[3]:
                        sequence_chain                     target_or_test_system                 reported
0  HSQGTFTSDY [K8, reference compound]  dipeptidyl-peptidase IV (DPP-IV) (Homo sapiens, UniProt P27487)  found to bind to DPP-IV
1  IVTQTMKGLD [K5, reference compound]  dipeptidyl-peptidase IV (DPP-IV) (Homo sapiens, UniProt P27487)  found to bind to DPP-IV
2  YAEGTFISDY [K9, reference compound]  dipeptidyl-peptidase IV (DPP-IV) (Homo sapiens, UniProt P27487)  found to bind to DPP-IV

====

molecular target: dipeptidyl-peptidase IV (DPP-IV) (Homo sapiens, UniProt P27487); construct: purchased Creative BioMart (Shirley, NY, USA); host or cells: HEK293 human cells; assay: DPP-IV inhibition assay on SPOT-synthesized peptides (cleaved from cellulose membrane); type: biochemical; details: peptides cleaved from cellulose membrane, concentration not known (semi-quantitative); averages of four determinations from two experiments
Ends that are not written are not given here.
Measured metric: Percent inhibition of DPP-IV activity, SPOT-synthesized deca-peptides (%)
Answers are plain numbers, in %.

Sample records with Percent inhibition of DPP-IV activity, SPOT-synthesized deca-peptides:
Substance	Target or test system	Reported
D6: α-lactalbumin-derived deca-peptide, residues 39–48 (Table S1) (QAIVQNNDST; UniProt P00711 58-67, looked up, fragment)	dipeptidyl-peptidase IV (DPP-IV) (Homo sapiens, UniProt P27487)	14
LFQINNKIWC [E8]	dipeptidyl-peptidase IV (DPP-IV) (Homo sapiens, UniProt P27487)	13
I2: α-lactalbumin-derived deca-peptide, residues 90–99 (Table S1) (MCAKKILDIK; UniProt P00709 109-118, looked up, fragment)	dipeptidyl-peptidase IV (DPP-IV) (Homo sapiens, UniProt P27487)	19

Next up:
Form: substance = INNKIWCKDD [E11, INNKIWCKDD] ; Percent inhibition of DPP-IV activity, SPOT-synthesized deca-peptides = 21

====

Assignment: determine reported pKi for the given sequences.
biological target: dipeptidyl-peptidase IV (DPP-IV) (Homo sapiens); construct: purchased Creative BioMart (Shirley, NY, USA); host or cells: HEK293 human cells; test: Determination of the mode of inhibition and the inhibition constant (Ki); type: biochemical
Ends that are not written are not given here.
Give bare numbers, as −log10 of the molar value.

List the reported pKi of each sequence below.
1. YPSKPDNPGE [K11, YPSKPDNPGE, reference compound]
2. LCSEKLDQWL [J11, LCSEKLDQWL]
3. LPEWVCTTFH [C1, LPEWVCTTFH]
4. IPAVFKIDAL [K7, IPAVFKIDAL]
5. LKPTPEGDLE [K6, LKPTPEGDLE]
6. LAHKALCSEK [J6, LAHKALCSEK]

3.58
3.66
3.52
3.81
3.14
3.66
